# Test system: COLO 205 colon
# Assay Explanation: NCI tumour cell line growth inhibition, 48 h
Quantity Kind: log10 TGI (log10 of the value in µM)
Scale type: logarithmic (base 10). Underlying TGI unit: µM.

The following compounds have reported results that may help.
{"columns": ["Compound", "Quantity Kind", "Result Number"],
 "data": [
  ["CC(C)(Cl)C(Br)CCC(=CCCl)CBr (mixture of isomers)", "log10 TGI", 0.71],
  ["CCN(CC)c1ccc(N=Nc2ccc(-c3nc4ccc[n+](C)c4s3)cc2)cc1", "log10 TGI", 1.06]
]}

Please go through the list and note log10 TGI for each compound.
1. CC(CO)(CO)NCCCCn1ccc2c1C(=O)c1c(c(O)c3ccccc3c1O)C2=O
2. COc1cc(C(=O)c2cc(C)c3[nH]c4ccc(C)cc4c3c2C)cc(OC)c1OC
3. C=CCOc1ccc(C2(O)c3ccccc3C3=NCCCN32)cc1 (centres undefined)
4. CC1=C[C@H]2c3c(c(O)c(O)c4oc(-c5ccccc5)cc(=O)c34)[C@H](c3cc(O)c(O)c4oc(-c5ccccc5)cc(=O)c34)[C@H]2C(C)(C)C1

Output:
1. 1.50
2. -1.43
3. 1.64
4. 1.06

###

# Tested on: U251 CNS
Select the matching outcome among active, inactive

Illustrative cases are given below, each with its answer.
{"columns": ["Molecule", "Group"],
 "data": [
  ["Nc1ccn(C2CCC(CO)O2)c(=O)n1 (centres undefined)", "inactive"],
  ["COc1ccc(-c2nn(-c3ccc(NC(=O)Nc4cc(C(F)(F)F)cc(C(F)(F)F)c4)cc3)cc2-c2ccncc2)cc1Cl", "inactive"],
  ["CC1(C)[C@@H](OC(N)=O)[C@H]2O[C@H]2[C@]2(C=O)[C@H]3CC[C@]4(C)[C@@H](c5ccc(=O)oc5)[C@@H](Cl)C[C@]4(O)C3=CC[C@@H]12", "active"],
  ["ClCc1cccc(Cn2cnc3nc(Cl)nc(Cl)c32)c1", "inactive"],
  ["COc1cc(C(=O)c2cc(C)c3[nH]c4ccc(C)cc4c3c2C)cc(OC)c1OC", "active"],
  ["CC1=C(C(=O)Nc2ccc(F)c(Cl)c2)C(c2cccc(O)c2)NC(=O)N1 (centres undefined)", "inactive"],
  ["O=C1Nc2ccc(F)cc2/C1=C/c1ccc[nH]1", "inactive"],
  ["O=C1CSC(c2ccc(Cl)cc2Cl)N1c1ccc(F)cc1 (centres undefined)", "inactive"]
]}

Task: Hey, what did the test say about "COc1ccc(CCN2COc3c([C@@H](C)CCC=C(C)C)ccc(C)c3C2)cc1OC" ?
Output: inactive

###

Kindly state TGI for each of the entries shown.
# Test system: A498 renal
# Assay Explanation: NCI tumour cell line growth inhibition, 48 h

Worked set:
{"columns": ["Compound", "Result"],
 "data": [
  ["Nc1ccc(-c2nc3ccc(Cc4ccc5nc(-c6ccc(N)cc6)[nH]c5c4)cc3[nH]2)cc1", "21.4 µM"],
  ["CN1COCc2c1ccc1cc3ccc4c(c3nc21)COCN4S(C)(=O)=O", "> 100 µM"],
  ["Nc1nc(Cl)cc(NCC2(CO)CCCC2)n1", "> 100 µM"]
]}

Provide each entry's TGI from the list below.
1. COc1ccc(C2OC(c3ccncc3)=NN2C)cc1OC (stereo not given)
2. COc1ccc(CC2NCCc3cc(OC)c(OC)cc32)cc1Br (stereo not given)

Output:
98.4 µM
> 79.1 µM

###

# Tested on: OVCAR-3 ovarian
# Assay Explanation: NCI tumour cell line growth inhibition, 48 h
Rule: TGI of 40 µM or more gives Yes; anything lower gives No.

Please review the following examples before continuing.
{"columns": ["Molecule", "Group"],
 "data": [
  ["CC(C)CC(O)P(=O)(O)O (configuration not stated)", "Yes"],
  ["COc1cccc(C#Cc2ccccc2C#CCCCCO)c1", "No"]
]}

Task: Item O=C(c1ccccc1)C1OC12C(=O)Nc1ccccc12 (configuration not stated) with TGI of 40 µM or above?
Output: Yes

Task: Given the entry Cn1c2ccccc2c(=O)c2cccc(C(=O)NC(CCCN=C(N)N)C(=O)O)c21 (configuration not stated) , answer whether its TGI meets or surpasses 40 µM.
Output: Yes

Task: Decide: is the reported value of TGI for "CC(C)C[C@H](NC(=O)/C=C/Cn1ccc2ccccc2c1=O)B(O)O" equal to or greater than 40 µM?
Output: No

Task: Reported TGI at or above 40 µM? O=C1NC2OC(C(O)CO)C(O)C2O1 (configuration not stated)
Output: Yes

Task: Could you verify whether the entry COc1ccc(N2C(=O)CSC2c2c[nH]c3ccccc23)cc1 (configuration not stated) shows TGI of no less than 40 µM?
Output: Yes

Task: Threshold query (TGI >= 40 µM) on CN(C)c1ccc(C2SCC(=O)N2c2ccc(Oc3ccc(Cl)cc3)c(Cl)c2)cc1 (configuration not stated)
Output: Yes

Task: Confirm if TGI reported for the molecule "CC(=O)C(=CN1CCN(C(=O)c2ccco2)C1=S)C(C)=O" is 40 µM or above.
Output: No

Task: // inclusive: TGI at least 40 µM? input: "COc1ccc(NS(=O)(=O)c2ccc(NC(NC(=O)CC(C)C)(C(F)(F)F)C(F)(F)F)cc2)nn1"
Output: Yes

Task: Could you please find out whether "Cc1[nH]c2ccccc2c(=O)c1CC=C(Cl)Cl" has TGI that meets 40 µM or exceeds it?
Output: Yes

Task: Form field: TGI at least 40 µM? Entry: "On1c(-c2ccccc2)nc2ccccc2c1=S"
Output: Yes

###

# Test system: U251 CNS
# Assay Explanation: NCI tumour cell line growth inhibition, 48 h
What TGI was measured for each of the following?

Examples with answers:
{"columns": ["Molecule", "Experimental Target", "TGI"],
 "data": [
  ["COc1ccc(CCN2COc3c([C@@H](C)CCC=C(C)C)ccc(C)c3C2)cc1OC", "U251 CNS", "4.47 µM"],
  ["O=C1c2cccnc2-c2nccc3c2c1nc1cc(Br)ccc13", "U251 CNS", "0.288 µM"]
]}

For every listed record, write down its TGI.
1. COc1cc(/C=C/c2ccc(OC)c(OC)c2)cc(OC)c1
2. CCn1c(SCc2ccc(C)cc2)nnc1-c1nn(-c2ccc(Cl)cc2Cl)c(-c2ccc(Cl)cc2)c1C
3. CCOc1cc(C(C)(C)C)ccc1C1=N[C@@](C)(c2ccc(Cl)cc2)[C@@](C)(c2ccc(Cl)cc2)N1C(=O)N1CCN(CCCS(C)(=O)=O)CC1
4. CCOC(=O)c1ccc(C)c(N=NN(C)C)c1
5. O=C1[C@@H]2C(c3ccccc3F)=NO[C@@H]2C(=O)N1c1ccc(Cc2ccc(N3C(=O)[C@H]4C(c5ccccc5F)=NO[C@H]4C3=O)cc2)cc1

Output:
["69 µM", "11.8 µM", "45.9 µM", "> 100 µM", "> 100 µM"]

###

Assignment: determine reported TGI for the given compounds.
# Tested on: EKVX NSCLC
# Assay Explanation: NCI tumour cell line growth inhibition, 48 h

These recorded examples may help you get a feel for the data.
{"columns": ["Compound", "TGI"],
 "data": [
  ["O=NN(CCCl)C(=O)NC1CCC(O)CC1 (configuration not stated)", "> 100 µM"],
  ["COc1ccc(NS(=O)(=O)c2ccc(NC(NC(=O)CC(C)C)(C(F)(F)F)C(F)(F)F)cc2)nn1", "> 100 µM"],
  ["COC(=O)C1CCCN1C(=O)C(Cc1cn(S(=O)(=O)c2ccc(C)cc2)cn1)NC(=O)OC(C)(C)C (configuration not stated)", "> 100 µM"]
]}

Below is a list of compounds. For each, state its recorded TGI.
1. O=C1OC2CCCC[C@@H]2C2C[C@]34CCCCC3[C@@H](C(=O)O4)C12 (some centres not stated)
2. COc1ccc(CC2NCCc3cc(OC)c(OC)cc32)cc1Br (configuration not stated)
3. CSc1ncnc2c1ncn2CCC#N
4. CCC/C(Cl)=N\OC(=O)Nc1ccc(OC(F)(F)F)cc1
5. C[N+]12CCCCC1C(CN1C(=O)Cc3c4ccccc4c(c4ccccc34)CC1=O)CCC2 (configuration not stated)
6. CC/C=C\C[C@H]1C/C=C2/C(=O)C=C[C@@H]2C/C=C\CCCC(=O)O1

Output:
> 100 µM
> 100 µM
> 100 µM
40.1 µM
> 100 µM
5.89 µM

Give TGI for each of the items listed below.
1. CC(C)(Cl)C(Br)CCC(=CCCl)CBr (mixture of isomers)
2. CCN(CC)c1ccc(N=Nc2ccc(-c3nc4ccc[n+](C)c4s3)cc2)cc1
3. O=C(c1ccccc1)C1OC12C(=O)Nc1ccccc12 (configuration not stated)

Output:
["36.1 µM", "58.8 µM", "> 100 µM"]

Your task in this section: give TGI for each listed record.
1. O=C1O[C@H](c2ccc3c(c2)OCO3)[C@H]2CO[C@@H](c3ccc4c(c3)OCO4)[C@@H]12
2. O=C1c2ccccc2C2(c3ccc(Cl)cc3)N[C@H]3CCCC[C@@H]3N12 (some centres not stated)

Output:
1. > 100 µM
2. > 100 µM
